Values were extracted from patent US4230698A.

Test system: L-1210
Test: In vitro cytotoxicity testing (growth inhibition, Trypan Blue exclusion), L-1210
Assay type: cell-based
Conditions: Mus musculus, L1210, 40 hr, 37 degrees C, read-out: Concentration for 50% Inhibition of Growth
Task for the reader: assign each of the following compounds its reported pIC50.
One number for each entry, as −log10 of the molar value.

compound	targetEntity	pIC50
[N-]=[N+]=N[C@H]1[C@H](O)[C@@H](CO)O[C@H]1n1ccc(N)nc1=O [Cytarazid]	L-1210	6.22

Now consider a different compound.
Incoming: Need pIC50 of Nc1ccn([C@@H]2O[C@H](CO)[C@@H](O)[C@@H]2N)c(=O)n1 [Cytaramin] , thanks.
Outgoing: 5.40
